Test: Primary qHTS for delayed death inhibitors of the malarial parasite plastid, 96 hour incubation
Settings: P. falciparum luciferase reporter growth; series mostly up to 28.7 µM
The whole screen tested about 320,000 compounds, of which about 22,000 (6.9%) were called active. Not shown: some 27% with an inconclusive outcome. The call rests on the fitted dose curve; in most records, active means well fitted inhibition curve with a large enough effect; inconclusive means small, poorly fitted or top-dose-only effect, or another doubt; inactive means no such curve, though single readings can be large or run the other way. What follows is part of a selection rich in actives, with near analogues and random picks from the rest.
Labels: active, inactive

[
  {
    "mol": "CC(C)(CNC(=O)c1ccc(Cl)c(S(=O)(=O)N2CCc3ccccc3C2)c1)N1CCOCC1",
    "assigned-label": "active"
  },
  {
    "mol": "Cc1ccccc1CSCCNC(=O)c1ccc(N(C)S(=O)(=O)c2ccccc2)cc1",
    "assigned-label": "inactive"
  },
  {
    "mol": "Cc1nc(N)nc(SCc2ccc([N+](=O)[O-])cc2)c1N",
    "assigned-label": "inactive"
  },
  {
    "mol": "O=C(NCCSCc1ccccc1)c1ccc(Cl)c(S(=O)(=O)N2CCOCC2)c1",
    "assigned-label": "active"
  },
  {
    "mol": "O=C(NCc1cccnc1)c1cc(S(=O)(=O)N2CCOCC2)c(Cl)cc1Cl",
    "assigned-label": "inactive"
  },
  {
    "mol": "Cc1ccc(NC(=O)CCCNC(=O)c2ccc(Cl)cc2)cc1S(=O)(=O)N1CCOCC1",
    "assigned-label": "inactive"
  },
  {
    "mol": "CC(C)(CNC(=O)Cc1ccc(Cl)cc1Cl)N1CCOCC1",
    "assigned-label": "inactive"
  },
  {
    "mol": "CCC(CC)NC(=O)/C=C/c1cccc([N+](=O)[O-])c1",
    "assigned-label": "inactive"
  },
  {
    "mol": "CN(C(=O)c1cccc([N+](=O)[O-])c1)c1ccccc1C(=O)NCc1ccccc1",
    "assigned-label": "inactive"
  },
  {
    "mol": "COc1cc(CC(=O)N2CCC(n3nccc3NC(=O)C3CC3)CC2)cc(OC)c1OC",
    "assigned-label": "inactive"
  }
]

###

Assay: Primary qHTS for delayed death inhibitors of the malarial parasite plastid, 96 hour incubation
Conditions: P. falciparum luciferase reporter growth; series mostly up to 28.7 µM
About 22,000 (6.9%) of roughly 320,000 compounds were called active. About 27% were inconclusive and are not listed. Calls follow the shape of the dose curve; as a rule, active = well fitted inhibition curve with a large enough effect; inconclusive = small, poorly fitted or top-dose-only effect, or another doubt; inactive = no such curve, though single readings can be large or run the other way. The entries come from a sample that favours actives as a whole.
Labels: active, inactive

[
  {
    "compound": "O=S(=O)(NC1CCCCC1N1CCCCC1)c1ccc(Cl)cc1 (configuration not stated)",
    "assigned-label": "inactive"
  },
  {
    "compound": "CC(C)(C)SCCSC1=CC(=O)CC(c2ccccc2)C1 (configuration not stated)",
    "assigned-label": "inactive"
  },
  {
    "compound": "N#Cc1nc(Cc2cccc3ccccc23)oc1NCc1ccc2c(c1)OCO2",
    "assigned-label": "active"
  },
  {
    "compound": "COc1cccc(C2=CC(=O)C[C@H](c3ccc(F)cc3)C2)c1OC",
    "assigned-label": "inactive"
  },
  {
    "compound": "CN(CC(=O)Nc1cccc(F)c1)C(=O)CC1CCCC1",
    "assigned-label": "inactive"
  },
  {
    "compound": "C=CCn1c(=NC(=O)c2ccc(S(=O)(=O)N3CCCC3)cc2)sc2cc(NC(C)=O)ccc21",
    "assigned-label": "active"
  },
  {
    "compound": "COc1ccc(CCNC(=O)COC(=O)Cc2cccc(F)c2)cc1",
    "assigned-label": "inactive"
  },
  {
    "compound": "O=C(Nc1ccc2c(c1)CCC2)c1cccc(S(=O)(=O)N2CCN(c3ccc(F)cc3)CC2)c1",
    "assigned-label": "active"
  },
  {
    "compound": "CC(CCc1ccc(O)cc1)NCc1ccc(Cl)cc1Cl (configuration not stated)",
    "assigned-label": "inactive"
  },
  {
    "compound": "CC(=O)N1CC(=O)N(CC(=O)Nc2ccc(Br)cc2)C1=S",
    "assigned-label": "inactive"
  },
  {
    "compound": "O=C(CCNC(=O)c1ccc(Br)cc1)Nc1cccc(S(=O)(=O)N2CCCCC2)c1",
    "assigned-label": "inactive"
  },
  {
    "compound": "O=C(NCc1ccco1)C1CCCN1S(=O)(=O)c1ccccc1C(F)(F)F (configuration not stated)",
    "assigned-label": "inactive"
  },
  {
    "compound": "O=C1C=C(c2cccc(Br)c2)C[C@@H](c2ccc(F)cc2)C1",
    "assigned-label": "active"
  },
  {
    "compound": "Cc1cc(C)cc(Oc2c(C(F)(F)F)oc3cc(OCC(=O)O)ccc3c2=O)c1",
    "assigned-label": "inactive"
  },
  {
    "compound": "O=C(CN1CCN(Cc2ccccc2)CC1)NC(c1ccccc1)c1ccccc1",
    "assigned-label": "active"
  },
  {
    "compound": "C[n+]1ccc(C(=O)NCc2ccccc2)cc1",
    "assigned-label": "inactive"
  },
  {
    "compound": "O=C(Cc1ccc(-c2ccccc2)cc1)NC(c1ccccc1)c1ccccc1",
    "assigned-label": "inactive"
  },
  {
    "compound": "CCOC1CCCCC1NS(=O)(=O)c1ccc(Cl)cc1 (configuration not stated)",
    "assigned-label": "active"
  },
  {
    "compound": "CC1CN(C(=O)CCC(=O)NC2CCN(Cc3ccccc3)CC2)c2ccccc2O1 (configuration not stated)",
    "assigned-label": "inactive"
  },
  {
    "compound": "COc1ccc(C(=O)NC(C)Cn2nc(C)cc2C)cc1OC1CCN(C(C)=O)CC1 (configuration not stated)",
    "assigned-label": "inactive"
  },
  {
    "compound": "O=C(Nc1ccc(-c2cscn2)cc1)C1CCCN(Cc2ccc(CO)o2)C1 (configuration not stated)",
    "assigned-label": "inactive"
  },
  {
    "compound": "O=C(c1ccc(Br)o1)N1CCN(CCOc2ccccc2)CC1",
    "assigned-label": "inactive"
  }
]

###

Test: Primary qHTS for delayed death inhibitors of the malarial parasite plastid, 96 hour incubation
Conditions: P. falciparum luciferase reporter growth; series mostly up to 28.7 µM
About 22,000 (6.9%) of roughly 320,000 compounds were called active. Inconclusive results (about 27%) are left out. Calls come from the whole dose curve; as a rule, active = well fitted inhibition curve with a large enough effect; inconclusive = small, poorly fitted or top-dose-only effect, or another doubt; inactive = no such curve, though single readings can be large or run the other way. This is one part of a sample in which actives are shown more often than they occur.
Labels: T for active, F for inactive

[
  {
    "compound": "CC1CCc2[nH]c3ccc(C(=O)N(C)CC(=O)Nc4cccc(F)c4)cc3c2C1 (stereo not given)",
    "assigned-label": "F"
  },
  {
    "compound": "CCN1CCN(C(=O)Cn2nc(C)n3c(cc4c(OC)cccc43)c2=O)CC1",
    "assigned-label": "F"
  },
  {
    "compound": "COc1ccc(N2CCN(S(=O)(=O)c3cc(Br)cnc3N)CC2)cc1",
    "assigned-label": "F"
  },
  {
    "compound": "CCCN(CC(=O)Nc1ccccc1C)C(=O)c1ccc2[nH]c3c(c2c1)CC(C)CC3 (stereo not given)",
    "assigned-label": "T"
  },
  {
    "compound": "CCCN(CC(=O)Nc1ccc(C(N)=O)cc1)CC(=O)Nc1ccccc1C",
    "assigned-label": "F"
  },
  {
    "compound": "CC(CCc1ccccc1)NC(=O)COC(=O)c1ccc(F)cc1 (stereo not given)",
    "assigned-label": "F"
  },
  {
    "compound": "CCOc1ccc(NC(=O)CC2C(=O)N(c3ccccc3)C(=O)N2CCOC)cc1 (stereo not given)",
    "assigned-label": "F"
  },
  {
    "compound": "CNS(=O)(=O)c1ccc(NC(=O)Nc2ccc3c(c2)OCO3)cc1",
    "assigned-label": "F"
  },
  {
    "compound": "CC1(C)C(C=C(Cl)Cl)C1C(=O)NC(O)C(=O)c1ccccc1 (stereo not given)",
    "assigned-label": "F"
  },
  {
    "compound": "Cc1ccc(S(=O)(=O)c2c[nH]c3ccc(Cl)cc3c2=O)cc1",
    "assigned-label": "F"
  }
]

###

Assay: Primary qHTS for delayed death inhibitors of the malarial parasite plastid, 96 hour incubation
Conditions: P. falciparum luciferase reporter growth; series mostly up to 28.7 µM
In all, about 320,000 compounds went through this assay and about 22,000 (6.9%) were called active. Roughly 27% stayed inconclusive and do not appear here. The call rests on the fitted dose curve; in most records, active means well fitted inhibition curve with a large enough effect; inconclusive means small, poorly fitted or top-dose-only effect, or another doubt; inactive means no such curve, though single readings can be large or run the other way. The entries come from a sample that favours actives as a whole.
Labels: active, inactive

[
  {
    "compound": "Cc1cccc(N2C(=O)C3C(c4ccccc4)OC4(C(=O)c5ccccc5C4=O)C3C2=O)c1 (centres undefined)",
    "assigned-label": "inactive"
  },
  {
    "compound": "COc1ccc([C@@H]2[C@@H]3C(=O)N(C(C)(C)C)C(=O)[C@@H]3[C@]3(Cc4ccccc4)C(=O)N(c4cccc(Br)c4)C(=O)N23)cc1",
    "assigned-label": "active"
  },
  {
    "compound": "COc1ccc(C)cc1NC(=O)C(Sc1ccccc1)c1ccccc1 (centres undefined)",
    "assigned-label": "inactive"
  },
  {
    "compound": "COc1ccc(C)cc1NC(=O)C(OC(=O)c1cccc(S(=O)(=O)N(C)c2ccccc2)c1)c1ccccc1 (centres undefined)",
    "assigned-label": "inactive"
  },
  {
    "compound": "O=C(NCCc1c[nH]c2ccc(Cl)cc12)c1ccc([N+](=O)[O-])cc1",
    "assigned-label": "inactive"
  },
  {
    "compound": "O=C1[C@H]2[C@@H](c3ccc(F)cc3)N3C(=O)N(c4ccc(C(F)(F)F)cc4)C(=O)[C@@]3(Cc3ccccc3)[C@H]2C(=O)N1C1CCCCC1",
    "assigned-label": "active"
  },
  {
    "compound": "Cc1ccc(C)c(NC(=O)C(OC(=O)c2ccc(C)s2)c2ccccc2)c1 (centres undefined)",
    "assigned-label": "active"
  },
  {
    "compound": "Cc1csc2nc(O)c(C(=O)NCCN3CCOCC3)c(=O)n12",
    "assigned-label": "inactive"
  },
  {
    "compound": "COCCN(CCOC)c1nc(N)c2c(N)nc3c(c2c1C#N)CC(=O)N3Cc1ccc(Cl)cc1",
    "assigned-label": "active"
  }
]
